Attribution: the OligoGym collection

target: UBE2K; assay: reporter assay of Huesken 2005; conditions: siRNA; also: test concentration or dose not given here
Oligonucleotides are given in HELM: sugar(base)linkage, 5' to 3'; d 2'-deoxyribose, r ribose, m 2'-O-methylribose, p phosphate. ss, as = sense and antisense strand
Record form. Attribute: normalised inhibition (eCFP-eYFP dual reporter). Fill in for each entry.
The answer is to be given in %; state only the numeric part.

Prompt: Field request: normalised inhibition (eCFP-eYFP dual reporter) | item: RNA1{r(A)p.r(U)p.r(A)p.r(C)p.r(C)p.r(A)p.r(A)p.r(C)p.r(U)p.r(A)p.r(G)p.r(A)p.r(G)p.r(A)p.r(U)p.r(A)p.r(A)p.r(A)p.r(A)p.d(T)p.d(T)}|RNA2{r(U)p.r(U)p.r(U)p.r(U)p.r(A)p.r(U)p.r(C)p.r(U)p.r(C)p.r(U)p.r(A)p.r(G)p.r(U)p.r(U)p.r(G)p.r(G)p.r(U)p.r(A)p.r(U)p.d(C)p.d(T)}$$$RNA1{StrandType:ss}|RNA2{StrandType:as}$
Response: 78.5

Prompt: Please look up its normalised inhibition (eCFP-eYFP dual reporter): RNA1{r(A)p.r(G)p.r(C)p.r(A)p.r(A)p.r(A)p.r(U)p.r(C)p.r(A)p.r(G)p.r(U)p.r(A)p.r(C)p.r(A)p.r(A)p.r(A)p.r(C)p.r(A)p.r(A)p.d(T)p.d(T)}|RNA2{r(U)p.r(U)p.r(G)p.r(U)p.r(U)p.r(U)p.r(G)p.r(U)p.r(A)p.r(C)p.r(U)p.r(G)p.r(A)p.r(U)p.r(U)p.r(U)p.r(G)p.r(C)p.r(U)p.d(A)p.d(C)}$$$RNA1{StrandType:ss}|RNA2{StrandType:as}$
Response: 77.8

Prompt: What value of measured normalised inhibition (eCFP-eYFP dual reporter) is listed for RNA1{r(C)p.r(A)p.r(G)p.r(A)p.r(C)p.r(A)p.r(C)p.r(A)p.r(C)p.r(C)p.r(A)p.r(U)p.r(A)p.r(U)p.r(G)p.r(A)p.r(A)p.r(G)p.r(G)p.d(T)p.d(T)}|RNA2{r(C)p.r(C)p.r(U)p.r(U)p.r(C)p.r(A)p.r(U)p.r(A)p.r(U)p.r(G)p.r(G)p.r(U)p.r(G)p.r(U)p.r(G)p.r(U)p.r(C)p.r(U)p.r(G)p.d(G)p.d(A)}$$$RNA1{StrandType:ss}|RNA2{StrandType:as}$ ?
Response: 72.8

Prompt: # normalised inhibition (eCFP-eYFP dual reporter) lookup, item RNA1{r(A)p.r(G)p.r(G)p.r(G)p.r(G)p.r(C)p.r(U)p.r(A)p.r(U)p.r(U)p.r(U)p.r(G)p.r(U)p.r(U)p.r(U)p.r(G)p.r(G)p.r(A)p.r(U)p.d(T)p.d(T)}|RNA2{r(A)p.r(U)p.r(C)p.r(C)p.r(A)p.r(A)p.r(A)p.r(C)p.r(A)p.r(A)p.r(A)p.r(U)p.r(A)p.r(G)p.r(C)p.r(C)p.r(C)p.r(C)p.r(U)p.d(G)p.d(T)}$$$RNA1{StrandType:ss}|RNA2{StrandType:as}$
Response: 71

Prompt: Reported normalised inhibition (eCFP-eYFP dual reporter), substance RNA1{r(A)p.r(G)p.r(G)p.r(A)p.r(U)p.r(G)p.r(C)p.r(U)p.r(G)p.r(U)p.r(A)p.r(G)p.r(U)p.r(A)p.r(G)p.r(C)p.r(A)p.r(A)p.r(A)p.d(T)p.d(T)}|RNA2{r(U)p.r(U)p.r(U)p.r(G)p.r(C)p.r(U)p.r(A)p.r(C)p.r(U)p.r(A)p.r(C)p.r(A)p.r(G)p.r(C)p.r(A)p.r(U)p.r(C)p.r(C)p.r(U)p.d(G)p.d(T)}$$$RNA1{StrandType:ss}|RNA2{StrandType:as}$ : ____
Response: 92.1
